System: HEK-293T
test method notes: Multiplex assay against HEK293T
Type: toxicity, cell-based
protocol conditions: human, 24 h, 10 µM, compound concentration 10 uM, replicate 2
Measured Total Cell Count by item
Keep the answer to the number alone.

Inquiry: Value lookup for Total Cell Count; key = CN1CCN2c3ccccc3Cc3ccccc3C2C1.Cl (centres undefined) [MIANSERIN HYDROCHLORIDE]
Reply text: 612

Inquiry: Repeat with COCCCN1CCC(NC(=O)c2cc(Cl)c(N)c3c2OCC3)CC1 [PRUCALOPRIDE]
Reply text: 341

Inquiry: Same question for COc1cc2nc(N3CCN(C(=O)c4ccco4)CC3)nc(N)c2cc1OC.Cl [PRAZOSIN HYDROCHLORIDE] please.
Reply text: 534

Inquiry: Entry Nc1nc(-c2ccco2)c2cnn(Cc3ccccc3F)c2n1 please
Reply text: 328

###

# Population Pyknosed Nuclei (%) values compiled below
Tested on: HEK-293T
test method notes: Multiplex assay against HEK293T
Type: toxicity, cell-based
protocol conditions: human, 24 h, 10 µM, compound concentration 10 uM, replicate 2
Report as: number unit

>>> recorded_result("COc1ccc2c(c1OCc1ccccc1)C[C@@H](C(=O)O)N(C(=O)C(c1ccccc1)c1ccccc1)C2 [OLODANRIGAN]")
"9%"

Inquiry: What value of Population Pyknosed Nuclei (%) has been recorded for this entry: Cc1cc(NC(=O)NCCN2CCC(O)(Cc3ccccc3)CC2)c2ccccc2n1 [PALOSURAN]
Reply text: 9%

Inquiry: # iterate: CSc1nc(NC2CCCC2)c([N+](=O)[O-])c(NC2CCCC2)n1 [GS-39783]
Reply text: 7%

Inquiry: Field entry: C[C@@H]1CC(=O)Nc2cccc(-c3ccc4c(c3)c(-c3cnn(C)c3)nn4C)c2N1
Reply text: 19%

Inquiry: Now this one: C[C@H](NC(=O)CNC(=O)c1cccc(Cl)c1)c1ccccc1
Reply text: 11%

###

System: Fibroblast
test method notes: Multiplex assay against human fibroblast
Type: toxicity, cell-based
protocol conditions: 48 h, 1 µM, compound concentration 1 uM, replicate 1
# Population Normal (%) values compiled below
Value expressed in %; do not type the unit.

Here is how some compounds turned out for Population Normal (%).
>>> recorded_result("CN1CCN(c2ccc(Nc3c4ccccc4nc4ccccc34)cc2)CC1.Cl.Cl.O")
98
>>> recorded_result("COCCn1c(C)c(C)s/c1=N\\C(=O)C1C(C)(C)C1(C)C")
95
>>> recorded_result("COc1ccc2[nH]c(I)c(CCNC(C)=O)c2c1")
96
>>> recorded_result("C[C@@H]1CC(=O)Nc2cccc(-c3ccc4c(c3)c(-c3cnn(C)c3)nn4C)c2N1")
94
>>> recorded_result("CN(C)C/C=C/C(=O)Nc1ccc(C(=O)N2CCCC(Nc3ncc(Cl)c(-c4c[nH]c5ccccc45)n3)C2)cc1 (stereo not drawn)")
90
>>> recorded_result("CCC(=O)OCC(=O)[C@@]1(OC(=O)CC)[C@@H](C)C[C@H]2[C@@H]3CCC4=CC(=O)C=C[C@]4(C)[C@@]3(Cl)[C@@H](O)C[C@@]21C [BECLOMETHASONE DIPROPIONATE]")
96
>>> recorded_result("CN(C)C(=O)Cn1cc(-c2ccc(-c3nnc4ccccn34)cc2)cn1")
98

Now take the following compound into account.
Inquiry: State its Population Normal (%) on Fibroblast: COc1cc(Nc2ncc3c(n2)-c2ccc(Cl)cc2C(c2c(F)cccc2OC)=NC3)ccc1C(=O)O
Reply text: 94

###

Tested on: U2OS
test method notes: Multiplex assay against U2OS
Assay type: toxicity, cell-based
protocol conditions: human, 12 h, 1 µM, compound concentration 1 uM, replicate 1
Population Membrane Permeable-Phenotype (%) for assorted compounds
Give just the numeric value; % need not be written.

>>> recorded_result("Cc1ccc(OCC(O)C(C)NC(C)C)c2c1CCC2.Cl (stereo not drawn)")
8
>>> recorded_result("CCn1c(-c2nc3cc(C(=O)N4CCCC(N)C4)ccc3n2C)cc2ccccc21.Cl (stereo not drawn)")
4
>>> recorded_result("COCCCN1CCC(NC(=O)c2cc(Cl)c(N)c3c2OCC3)CC1 [PRUCALOPRIDE]")
7
>>> recorded_result("COc1ccc2[nH]c(I)c(CCNC(C)=O)c2c1")
4

Inquiry: Which measured Population Membrane Permeable-Phenotype (%) belongs to CN1C[C@H](C(=O)N[C@]2(C)O[C@@]3(O)[C@@H]4CCCN4C(=O)[C@H](Cc4ccccc4)N3C2=O)C[C@@H]2c3cccc4[nH]cc(c34)C[C@H]21.CS(=O)(=O)O [DIHYDROERGOTAMINE MESYLATE] , tested on U2OS?
Reply text: 6

Inquiry: What do you have for OCCCNc1cc(-c2ccnc(Nc3cccc(Cl)c3)n2)ccn1 ?
Reply text: 8

Inquiry: How about this compound: Cl.Cl.OCCOCCN1CCN(C(c2ccccc2)c2ccc(Cl)cc2)CC1 (stereo not drawn) [HYDROXYZINE HYDROCHLORIDE]
Reply text: 11

###

Tested on: U2OS
test method notes: Multiplex assay against U2OS
Type: toxicity, cell-based
protocol conditions: human, 48 h, 10 µM, compound concentration 10 uM, replicate 1
# reported Population Tubulin-Different-Phenotype (%); entries follow
Please state the figure in %; there is no need to write the unit.

>>> recorded_result("Cc1nn(C)c2nc(NNC(=O)Nc3cc(Cl)nc(Cl)c3)cc(C(C)C)c12")
49
>>> recorded_result("OCCCNc1cc(-c2ccnc(Nc3cccc(Cl)c3)n2)ccn1")
45
>>> recorded_result("COc1ccc2[nH]c(I)c(CCNC(C)=O)c2c1")
2
>>> recorded_result("CN1CCC(C(=O)c2cccc(NC(=O)c3c(F)cc(F)cc3F)n2)CC1")
3

Inquiry: Recorded Population Tubulin-Different-Phenotype (%) for COc1c(Nc2ccc(S(C)(=O)=O)nc2C)ncnc1OC1CCN(C(=O)OC(C)C)CC1 , please?
Reply text: 2

Inquiry: Would you kindly repeat that for COc1cc2nc(N3CCN(C(=O)c4ccco4)CC3)nc(N)c2cc1OC.Cl [PRAZOSIN HYDROCHLORIDE] ?
Reply text: 3

Inquiry: And C[C@@H]1CC(=O)Nc2cccc(-c3ccc4c(c3)c(-c3cnn(C)c3)nn4C)c2N1 ?
Reply text: 5

Inquiry: Try this molecule too: Cc1cc(O)c(-c2ccc([C@@H](C)CN(C)C)cc2)c2c1[nH]c(=O)c1sccc12
Reply text: 32

Inquiry: How about Cc1c(Cc2ccc3ccccc3n2)c2cc(F)ccc2n1CC(=O)O ?
Reply text: 1

###

System: Fibroblast
test method notes: Multiplex assay against human fibroblast
Assay type: toxicity, cell-based
protocol conditions: 24 h, 1 µM, compound concentration 1 uM, replicate 2
measured attribute: Population Hoechst High Intensity Objects (%)
Give the value in % but do not write % after it.

Here is how some molecules turned out for Population Hoechst High Intensity Objects (%).
>>> recorded_result("CCn1c(-c2nc3cc(C(=O)N4CCCC(N)C4)ccc3n2C)cc2ccccc21.Cl (configuration not stated)")
9
>>> recorded_result("Cc1ccc(OCC(O)C(C)NC(C)C)c2c1CCC2.Cl (configuration not stated)")
15

Moving on to the next molecule.
Inquiry: Need Population Hoechst High Intensity Objects (%), item COc1cc(C(=O)N2CC[C@@H](O)[C@@H](N)C2)cc2nc(-c3cc4ccccc4n3CC3CC3)n(C)c12.Cl
Reply text: 4

###

Test system: U2OS
test method notes: Multiplex assay against U2OS
Type: toxicity, cell-based
protocol conditions: human, 24 h, 10 µM, compound concentration 10 uM, replicate 2
Below, each entry is listed with its recorded Total Cell Count.
Number only, please.

Worked set:
>>> recorded_result("Cc1ccc(OCC(O)C(C)NC(C)C)c2c1CCC2.Cl (stereo unspecified)")
172
>>> recorded_result("CCn1c(-c2nc3cc(C(=O)N4CCCC(N)C4)ccc3n2C)cc2ccccc21.Cl (stereo unspecified)")
146
>>> recorded_result("CCCCCCNC(=O)Nc1ccc(S(=O)(=O)Nc2ccc(CCNC[C@H](O)COc3ccc(O)cc3)cc2)cc1")
149
>>> recorded_result("COc1ccc2[nH]c(I)c(CCNC(C)=O)c2c1")
153
>>> recorded_result("C=CCN1C[C@H](C(=O)N(CCCN(C)C)C(=O)NCC)C[C@@H]2c3cccc4[nH]cc(c34)C[C@H]21")
165

Here is the next item to consider.
Inquiry: Record request: Total Cell Count value, item COc1ccc2c(c1OCc1ccccc1)C[C@@H](C(=O)O)N(C(=O)C(c1ccccc1)c1ccccc1)C2
Reply text: 123

###

Item-by-item account of Population Apoptotic (%)
Test system: Fibroblast
test method notes: Multiplex assay against human fibroblast
Format: toxicity, cell-based
protocol conditions: 48 h, 1 µM, compound concentration 1 uM, replicate 2
Value expressed in %; do not type the unit.

Examples from the recorded data:
>>> recorded_result("Cc1cc(-c2ccc3c(c2)CC[C@H]3N2CC3(CCN(C(=O)Cc4cn5cc(C)sc5n4)CC3)C2)ncn1 [PF-5190457]")
34
>>> recorded_result("COc1cc2nc(N3CCN(C(=O)c4ccco4)CC3)nc(N)c2cc1OC.Cl [PRAZOSIN HYDROCHLORIDE]")
66

Inquiry: Consider the compound CN(C)C(=O)Cn1cc(-c2ccc(-c3nnc4ccccn34)cc2)cn1 and give its measured Population Apoptotic (%).
Reply text: 42

Inquiry: Now consider C=CCN1C[C@H](C(=O)N(CCCN(C)C)C(=O)NCC)C[C@@H]2c3cccc4[nH]cc(c34)C[C@H]21 [CABERGOLINE] and answer again.
Reply text: 58
